- tested_on: Estrogen receptor (Homo sapiens) (UniProt P03372)
- Sequence (P03372 whole entry, looked up): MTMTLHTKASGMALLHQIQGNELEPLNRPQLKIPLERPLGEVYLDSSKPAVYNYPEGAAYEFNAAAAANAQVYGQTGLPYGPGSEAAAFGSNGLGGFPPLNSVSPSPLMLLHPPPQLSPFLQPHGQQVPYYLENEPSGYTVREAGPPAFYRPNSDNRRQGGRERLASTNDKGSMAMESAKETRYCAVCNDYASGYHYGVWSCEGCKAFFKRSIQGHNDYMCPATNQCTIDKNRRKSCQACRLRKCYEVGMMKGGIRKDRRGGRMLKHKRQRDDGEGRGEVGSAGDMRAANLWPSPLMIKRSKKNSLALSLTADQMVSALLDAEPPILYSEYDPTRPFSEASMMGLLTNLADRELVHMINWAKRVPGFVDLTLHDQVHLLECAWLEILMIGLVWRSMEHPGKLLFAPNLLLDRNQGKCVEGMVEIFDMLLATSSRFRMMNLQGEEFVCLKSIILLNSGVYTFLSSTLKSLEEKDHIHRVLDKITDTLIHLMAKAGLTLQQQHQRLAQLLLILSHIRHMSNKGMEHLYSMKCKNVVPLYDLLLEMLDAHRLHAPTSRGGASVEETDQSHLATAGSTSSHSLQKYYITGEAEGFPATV
- assay_name: qHTS assay to identify small molecule agonists of the estrogen receptor alpha (ER-alpha) signaling pathway using the BG1 cell line (AID 743079); also: nearly all actives have a fitted effect of over 20% in size
- condition_set: BG1Luc4E2 cells, ERE-luciferase agonist, 22 h
Records with an inconclusive call do not appear. Active and inactive are the calls of the source. Calls follow the shape of the dose curve; as a rule, active = well fitted activation curve with a large enough effect in the repeat runs; inconclusive = weak or mixed curves, or effect the other way; inactive = no such curve, though single readings can be large or run the other way.
Write down one outcome, taken from y = active, n = inactive

Worked set:
COc1ccc(C2NC(=S)N3C(c4ccc(OC)c(OC)c4)NC(=S)N23)cc1OC (centres undefined) | n
CC(O)[C@@H]1NC(=O)[C@H](Cc2ccccc2)NC(=O)[C@H](C(C)O)NC(=O)[C@H](CCCCN)NC(=O)[C@H](Cc2c[nH]c3ccccc23)NC(=O)[C@H](Cc2ccccc2)NC(=O)[C@H](Cc2ccccc2)NC(=O)[C@H](CC(N)=O)NC(=O)[C@H](CCCCN)NC(=O)[C@@H](NC(=O)CNC(=O)[C@H](C)N)CSSC[C@@H](C(=O)O)NC(=O)[C@H](CO)NC1=O (some centres undefined) | n
CC1C(=O)CC2C3(C)CCC2(C(C)C(=O)O)C(=O)C13 (centres undefined) | n
O=C(Nc1ccc(/C=C/c2ccc(NC(=O)c3cc(S(=O)(=O)O)c4cccnc4c3O)cc2S(=O)(=O)O)c(S(=O)(=O)O)c1)c1cc(S(=O)(=O)O)c2cccnc2c1O | n
CNc1cc(OC)c(C(=O)N[C@H]2CCN(Cc3ccccc3)[C@H]2C)cc1Cl | n

Lab log entry: CCC(=O)NCCC1CCc2ccc3c(c21)CCO3 (centres undefined) — outcome as called in the assay?
y

Lab log entry: Clc1ccc(COC(Cn2ccnc2)c2ccc(Cl)cc2Cl)c(Cl)c1 (centres undefined) — outcome as called in the assay?
n

Lab log entry: CCCC(=O)O[C@]1(C(=O)COC(C)=O)CC[C@H]2[C@@H]3C[C@H](F)C4=CC(=O)C=C[C@]4(C)[C@@]3(F)[C@@H](O)C[C@@]21C — outcome as called in the assay?
n

Lab log entry: COc1cc(C[C@@H]2NCCc3cc(O)c(O)cc32)cc(OC)c1OC — outcome as called in the assay?
n

Lab log entry: COC(=O)CC[C@H](N)C(=O)O — outcome as called in the assay?
n

Lab log entry: CN1CCN(CCCN2c3ccccc3Sc3ccccc32)CC1 — outcome as called in the assay?
n

Lab log entry: COc1ccc2c(c1)N(C[C@H](C)CN(C)C)c1ccccc1S2 — outcome as called in the assay?
n

Lab log entry: Cc1ncc(COP(=O)(O)O)c(CN)c1O — outcome as called in the assay?
n

* * *

- assay_name: qHTS assay to identify small molecule that activate the aryl hydrocarbon receptor (AhR) signaling pathway - cell viability counter screen (AID 743086); also: nearly all actives have a fitted effect of over 45% in size
- condition_set: HepG2-AhR-luc viability, CellTiter-Fluor, 24 h; series mostly up to 70.3 µM
- Excerpt: U.S. Tox21 Program National Center for Advancing Translational Sciences [NCATS] NIH Chemical Genomics Center [NCGC] U.S. Environmental Protection Agency [EPA] National Institutes of Environmental Health Sciences [NIEHS] National Toxicology Program [NTP] U.S. Food and Drug Administration [FDA] Tox21 Assay overview: The Aryl hydrocarbon Receptor (AhR), a member of the family of basic helix-loop-helix transcription factors, is crucial to adaptive responses to environmental changes. […]
Results filed as inconclusive are left out. Calls of active or inactive are those of the source. Calls come from the whole dose curve; as a rule, active = well fitted cell-killing curve with a large enough effect in the repeat runs; inconclusive = weak or mixed curves, or effect the other way; inactive = flat fitted curve, though single readings scatter.
Write down one outcome, taken from active, inactive

Worked set:
CCCCC(O)c1ccccc1 (stereo unspecified) | inactive
O=C(/C=C/c1cccc(F)c1)NC1CC1 | inactive
CCC(=O)O[C@@H]1CC(=O)O[C@H](C)C/C=C/C=C/[C@H](O)[C@H](C)C[C@H](CC=O)[C@H](O[C@@H]2O[C@H](C)[C@@H](O[C@H]3C[C@@](C)(O)[C@@H](OC(=O)CC)[C@H](C)O3)[C@H](N(C)C)[C@H]2O)[C@H]1OC | inactive
CO/N=C(\C(=O)N[C@@H]1C(=O)N2C(C(=O)O)=CCS[C@H]12)c1csc(N)n1 | inactive
O=P(O)(O)C(Sc1ccc(Cl)cc1)P(=O)(O)O | inactive

Lab log entry: OC[C@H]1O[C@@H](O[C@H]2[C@H](O)[C@@H](O)[C@H](O)O[C@@H]2CO)[C@H](O)[C@@H](O)[C@@H]1O — outcome as called in the assay?
inactive

Lab log entry: C#C[C@]1(O)CC[C@H]2[C@@H]3CCC4=CCCC[C@@H]4[C@H]3C(=C)C[C@@]21CC — outcome as called in the assay?
inactive

Lab log entry: O=C(O)c1cc(N=Nc2ccc(O)c(C(=O)O)c2)ccc1O — outcome as called in the assay?
inactive

Lab log entry: CCCCCCCCCCCCOCCCN — outcome as called in the assay?
inactive

Lab log entry: CCCC(=O)N1CCCN(c2nc(N)c3cc(OC)c(OC)cc3n2)CC1 — outcome as called in the assay?
inactive

Lab log entry: CC[C@@H]1/C=C(\C)C[C@H](C)C[C@H](OC)[C@H]2O[C@@](O)(C(=O)C(=O)N3CCCC[C@H]3C(=O)O[C@H](/C(C)=C/[C@@H]3CC[C@@H](Cl)[C@H](OC)C3)[C@H](C)[C@@H](O)CC1=O)[C@H](C)C[C@@H]2OC — outcome as called in the assay?
inactive

Lab log entry: CN(CCO)CC(O)Cn1cnc2c1c(=O)n(C)c(=O)n2C (stereo unspecified) (tested in a mixture with another compound) — outcome as called in the assay?
inactive

Lab log entry: COc1ccc(C2(C#N)CCC(C(=O)O)CC2)cc1OC1CCCC1 (stereo unspecified) — outcome as called in the assay?
inactive

Lab log entry: FC(F)(F)C(F)(F)C(F)(F)C(F)(F)C(F)(F)C(F)(F)F — outcome as called in the assay?
inactive

Lab log entry: CCCCCCCCCCCCCCCC(=O)OCC(COC(=O)CCCCCCCCCCCCCCC)OC(=O)CCCCCCCCCCCCCCC — outcome as called in the assay?
inactive

Lab log entry: OC(CN1CCCCC1)c1cc(-c2ccccc2)on1 (stereo unspecified) — outcome as called in the assay?
inactive

Lab log entry: O=C(O)CCC/C=C\C[C@@H]1[C@@H](/C=C/[C@@H](O)COc2cccc(C(F)(F)F)c2)[C@H](O)C[C@@H]1O — outcome as called in the assay?
inactive

Lab log entry: CS(=O)(=O)OCC(O)C(O)COS(C)(=O)=O (stereo unspecified) — outcome as called in the assay?
inactive

Lab log entry: CN[C@@H]1[C@@H](O)[C@@H](O[C@@H]2[C@@H](O)[C@H](OC3OC(CN)=CCC3N)[C@@H](N)C[C@H]2N)OC[C@]1(C)O (stereo partly specified) — outcome as called in the assay?
inactive

Lab log entry: CC(=O)OCC(=O)[C@@]12OC3(CCCC3)O[C@@H]1C[C@H]1[C@@H]3CCC4=CC(=O)C=C[C@]4(C)[C@@]3(F)[C@@H](O)C[C@@]12C — outcome as called in the assay?
inactive

Lab log entry: Cn1c(O)c(N=NC(N)=S)c2ccccc21 — outcome as called in the assay?
active

Lab log entry: CC(=O)OCC(=O)[C@@]1(O)[C@H](C)C[C@H]2[C@@H]3C[C@H](F)C4=CC(=O)C=C[C@]4(C)[C@H]3[C@@H](O)C[C@@]21C — outcome as called in the assay?
inactive

Lab log entry: CCCCOC(=O)C(=O)Nc1cccc(-c2nn[nH]n2)c1 — outcome as called in the assay?
inactive

Lab log entry: CCCCCCCCCCCCCCCC(=O)O[C@@H]1[C@@H](O)[C@@H](O)[C@@H]([C@H](NC(=O)[C@@H]2C[C@@H](CCC)CN2C)[C@H](C)Cl)O[C@@H]1SC — outcome as called in the assay?
inactive

Lab log entry: Cc1cc(O)c2c(c1)O[C@@]1(C)CC[C@H]3C(C)(C)CCCC34CO[C@@H]2[C@H]41 (stereo partly specified) — outcome as called in the assay?
inactive

* * *

- assay_name: qHTS assay to test for compound auto fluorescence at 460 nm (blue) in HepG2 cell free culture (AID 720685)
- condition_set: Cell-free culture medium, blue autofluorescence 405/460 nm; series mostly up to 46 µM
Active and inactive are the calls of the source. The call rests on the fitted dose curve; in most records, active means well fitted curve in the direction sought with a large enough effect in the repeat runs; inconclusive means weak or mixed curves; inactive means flat fitted curve, though single readings scatter.
measurement_name: outcome

Here is how some compounds turned out for outcome.
O=C(O)c1cc(O)c2c(c1)[O][Bi][O]2 | inactive
O=C(OC1C[C@@H]2CC3C[C@H](C1)N2CC3=O)c1c[nH]c2ccccc12 (some centres not stated) | inactive
O=C(NOC[C@H](O)CO)c1ccc(F)c(F)c1Nc1ccc(I)cc1F | inactive
O=[n+]1ccn([O-])c2ccccc21 | inactive
C[C@H](CSC(=O)c1ccccc1)C(=O)N1C[C@@H](Sc2ccccc2)C[C@H]1C(=O)O | inactive
CNC[C@@H]1CC[C@@H](N)[C@@H](O[C@H]2[C@H](O)[C@@H](O[C@H]3OC[C@](C)(O)[C@H](NC)[C@H]3O)[C@H](N)C[C@@H]2N)O1 | inactive

Turning to the following compound.
May I ask what outcome has been recorded for CO[C@H]1C[C@@H]2CC[C@@H](C)[C@@](O)(O2)C(=O)C(=O)N2CCCC[C@H]2C(=O)O[C@H]([C@H](C)C[C@@H]2CC[C@@H](OC(=O)C(C)(CO)CO)[C@H](OC)C2)CC(=O)[C@H](C)/C=C(\C)[C@@H](O)[C@@H](OC)C(=O)[C@H](C)C[C@H](C)/C=C/C=C/C=C/1C ?
inactive
